Assay: CEETOX_H295R_OHPREG: CeeTox H295R High-throughput Steroidogenesis Assay for OH-Pregnenolone (OHPREG) (AID 2283434)
Conditions: actives raise or lower the signal
The source made the active and inactive calls. Rule for the calls: active = hit-call score of the fitted dose curve at least 0.9, where 1 is the maximum; inactive = score below 0.9.
// classify into class 1 for active, class 0 for inactive

compound	group
CCOP(=O)(NC(C)C)Oc1ccc(SC)c(C)c1 (centres undefined)	class 1
FC(F)C(F)(F)OCC(Cn1cncn1)c1ccc(Cl)cc1Cl (centres undefined)	class 0

Here is another compound to look at.
Problem: Called result for `CSc1nc(NC(C)C)nc(NC(C)C)n1`
Result: class 0

###

Read-out: TIMP metallopeptidase inhibitor 2 (TIMP2), TIMP2 (gene 7077)
Test: BSK_KF3CT_TIMP2: BioMAP Diversity Plus: KF3CT Assay for TIMP metallopeptidase inhibitor 2 (TIMP2) Biomarker Activity (AID 2283071)
Conditions: primary human keratinocytes with fibroblasts; actives raise or lower the signal
Calls of active or inactive are those of the source. Rule for the calls: active = hit-call score of the fitted dose curve at least 0.9, where 1 is the maximum; inactive = score below 0.9.
// classify into yes (1) (active), no (0) (inactive)

See these solved cases before continuing.
compound	group
CCc1cnc(C2=NC(C)(C(C)C)C(=O)N2)c(C(=O)O)c1 (stereo not drawn)	no (0)
Cc1ccn2nc(S(=O)(=O)Nc3c(F)cccc3F)nc2n1	no (0)

Problem: Called result for `CCCCOC(=O)c1ccccc1C(=O)O`
Result: no (0)

Problem: Called result for `CC(C)N(C(=O)SCC(Cl)=C(Cl)Cl)C(C)C`
Result: yes (1)

Problem: Called result for `CCOP(=S)(OCC)Oc1ccc2c(C)c(Cl)c(=O)oc2c1`
Result: no (0)

Problem: Called result for `Cc1nn(-c2cc(NS(C)(=O)=O)c(Cl)cc2Cl)c(=O)n1C(F)F`
Result: no (0)

Problem: Called result for CCCSP(=O)(OCC)Oc1ccc(Br)cc1Cl (stereo not drawn)
Result: no (0)
